target: integrin αvβ3 (Homo sapiens, UniProt P05106+P06756); test: Binding affinity for immobilized integrin αvβ3, displacement of [^125I]c(RGDyV); conditions: isolated integrin αvβ3, radioligand [^125I]c(RGDyV), three independent measurements
Sequence (P06756 31-889 limits assumed): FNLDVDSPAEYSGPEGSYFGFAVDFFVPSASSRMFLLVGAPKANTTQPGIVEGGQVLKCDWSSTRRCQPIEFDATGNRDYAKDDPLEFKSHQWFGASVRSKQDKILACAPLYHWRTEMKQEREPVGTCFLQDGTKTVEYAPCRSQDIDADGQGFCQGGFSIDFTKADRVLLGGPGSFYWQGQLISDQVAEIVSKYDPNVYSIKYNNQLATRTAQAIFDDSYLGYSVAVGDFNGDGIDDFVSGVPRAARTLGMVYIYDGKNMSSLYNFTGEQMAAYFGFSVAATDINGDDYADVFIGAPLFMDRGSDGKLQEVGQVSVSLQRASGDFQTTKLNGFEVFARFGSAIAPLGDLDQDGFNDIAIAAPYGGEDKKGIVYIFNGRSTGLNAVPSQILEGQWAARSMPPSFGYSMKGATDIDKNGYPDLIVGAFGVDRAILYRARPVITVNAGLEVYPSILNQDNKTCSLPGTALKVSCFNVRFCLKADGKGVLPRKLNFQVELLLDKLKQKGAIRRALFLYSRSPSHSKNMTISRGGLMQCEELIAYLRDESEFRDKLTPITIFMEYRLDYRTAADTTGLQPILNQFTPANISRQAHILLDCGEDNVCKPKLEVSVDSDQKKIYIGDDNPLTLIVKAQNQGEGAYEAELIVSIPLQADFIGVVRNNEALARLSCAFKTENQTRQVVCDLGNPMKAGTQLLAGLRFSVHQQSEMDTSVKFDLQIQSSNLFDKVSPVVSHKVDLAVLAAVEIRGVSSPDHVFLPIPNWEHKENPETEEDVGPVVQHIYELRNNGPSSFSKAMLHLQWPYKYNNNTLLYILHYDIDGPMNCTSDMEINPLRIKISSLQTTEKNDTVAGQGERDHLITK
Sequence (P06756 891-1048 limits assumed): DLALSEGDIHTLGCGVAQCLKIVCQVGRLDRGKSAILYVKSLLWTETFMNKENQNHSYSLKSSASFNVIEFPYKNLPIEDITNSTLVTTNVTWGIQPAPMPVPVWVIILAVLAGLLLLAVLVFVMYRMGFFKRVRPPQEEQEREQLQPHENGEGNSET
Sequence (P05106 27-788): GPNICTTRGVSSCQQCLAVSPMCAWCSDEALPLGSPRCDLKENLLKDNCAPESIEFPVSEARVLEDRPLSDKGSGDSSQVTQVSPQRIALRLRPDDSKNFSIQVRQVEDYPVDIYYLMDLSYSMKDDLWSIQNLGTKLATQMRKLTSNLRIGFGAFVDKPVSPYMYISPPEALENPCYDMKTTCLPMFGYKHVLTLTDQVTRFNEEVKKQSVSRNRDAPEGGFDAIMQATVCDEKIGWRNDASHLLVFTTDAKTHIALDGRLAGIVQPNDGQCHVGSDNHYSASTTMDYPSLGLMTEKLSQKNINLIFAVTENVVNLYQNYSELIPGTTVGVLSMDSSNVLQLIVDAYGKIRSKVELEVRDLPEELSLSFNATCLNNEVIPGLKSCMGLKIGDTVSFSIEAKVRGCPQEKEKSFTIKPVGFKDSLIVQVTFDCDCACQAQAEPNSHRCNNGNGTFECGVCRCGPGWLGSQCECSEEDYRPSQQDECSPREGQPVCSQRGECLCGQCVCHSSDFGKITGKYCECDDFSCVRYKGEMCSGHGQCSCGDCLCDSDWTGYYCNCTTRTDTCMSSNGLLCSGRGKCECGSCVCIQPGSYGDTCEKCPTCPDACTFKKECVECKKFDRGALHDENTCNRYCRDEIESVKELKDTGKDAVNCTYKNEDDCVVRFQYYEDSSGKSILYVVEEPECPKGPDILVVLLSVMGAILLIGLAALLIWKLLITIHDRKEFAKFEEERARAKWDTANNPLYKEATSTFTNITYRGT
pIC50: −log10 of the molar value.
endpoint label: pIC50

{"molecule": "CC(C)[C@@H]1NC(=O)[C@@H](Cc2ccc(O)cc2)NC(=O)[C@H](CC(=O)O)NC(=O)CNC(=O)[C@H](CCCNC(=N)N)NC1=O [c(RGDyV), cyclo(-Arg-Gly-Asp-DTyr-Val-)]", "endpoint label": "pIC50", "recorded value": 8.21}
